Entries and their inhibition at 25 µM
- Test system: encephalitogenic lymphocytes
- TEST_NAME: Spontaneous adhesion of encephalitogenic T cells on purified ICAM-1
- Assay type: cell-based, SJL mice
- CONDITION_PARAMETERS: Mus musculus, Lymphocyte; [cpd] 25 μM; 1 h; read-out: Inhibition of Spontaneous Adhesion in encephalitogenic lymphocytes (% of control/non-treated cells) ICAM-1 (converted)
RECORDED_METRIC: inhibition at 25 µM (%)

1) COc1ccc(-c2c3n(c4cc(OC)c(OC)cc24)CCNC3=O)cc1    82
2) COc1ccc(-c2c(C#N)n(CCCO)c3cc(OC)c(OC)cc23)cc1    88
3) COC(=O)c1[nH]c2cc(OC)c(OC)cc2c1-c1ccc(OC)cc1    70
4) COc1ccc(-c2c(C#N)[nH]c3cc(OC)c(OC)cc23)cc1    76
5) COC(=O)c1[nH]c2cc(OC)c(OC)cc2c1-c1ccccc1    90
